Biological target: T1, mouse GIP receptor (mouse, UniProt Q0P543 19-460)
T1 sequence (looked up): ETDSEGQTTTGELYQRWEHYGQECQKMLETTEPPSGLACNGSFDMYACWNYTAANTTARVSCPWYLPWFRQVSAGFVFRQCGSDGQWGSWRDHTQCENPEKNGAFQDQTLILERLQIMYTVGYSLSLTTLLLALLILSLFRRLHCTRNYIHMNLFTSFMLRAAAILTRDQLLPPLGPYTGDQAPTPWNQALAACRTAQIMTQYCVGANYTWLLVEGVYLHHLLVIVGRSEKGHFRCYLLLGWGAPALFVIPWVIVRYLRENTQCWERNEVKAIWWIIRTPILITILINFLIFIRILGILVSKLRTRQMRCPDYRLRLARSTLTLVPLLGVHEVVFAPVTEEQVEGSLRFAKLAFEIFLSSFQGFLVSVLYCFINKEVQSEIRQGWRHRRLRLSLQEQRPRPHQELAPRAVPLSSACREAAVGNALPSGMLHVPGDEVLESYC
Assay: cell-based or functional assay
Ends that are not written are not given here.
Class (by cAMP EC50) -- low-valued = under 8 nM, mid-valued = from 8 nM up to 200 nM, high-valued = 200 nM and over

Quick check: band for IP354 (Fc fusion) YSEGMHTSDFSKLLEEEAVRLFIEWLLAGGGGGGSGGGGSGGGGSGGGGSATHTCPPC
high-valued

Form field 'band' for IP370 (Fc fusion) YSEGTFTSLYSKLKEEEAVRLFIEWLLAGGGGGGSGGGGSGGGGSGGGGSATHTCPPC
low-valued

Textbook exercise: identify the category of the binder given here, IP276 (Fc fusion) YSEGTFTSDYSKLLEEEAVRLFIEWLVKGPGGGGGGGGGGGGGGGGGATHTCPPC , according to its measured value.
high-valued

Could you place IP260 (Fc fusion) YSEGTFTSDYSKLLEEEAVQLFIEWLVKGPGGGGGSGGGGSGGGGSGGGGSATHTCPPCPAPEF in its proper category? Many thanks.
high-valued

# bin label for IP235 (Fc fusion, cysteine pairing not given here; also: fused to IgG1-TM Fc) YSEGTFTSDYSKLLEEEAVRLFIEWLVKGPGGGGGSGGGGSATHTCPPCPAPEF
high-valued

Form field 'band' for IP423 (Fc fusion) YSEGTHTSDLRILLEEEAVRLFIEFLLAGGGSGGGGSGGGGSGGGGSGGGGSGGGGSGGGGSGGGGSACPPC
mid-valued

Sort IP293 (Fc fusion) YSEGTFTSDYSKLLEEEAVRCFIECLVKGPGGGGGGGGGGGGGGGGGGGGACPPC into one of the categories.
high-valued

Which class does IP236 (Fc fusion, cysteine pairing not given here; also: fused to IgG1-TM Fc) YSEGTFTSDYSKLLEEEAVRLFIEWLVKGPGGGGGSGGGGSGGGGSATHTCPPCPAPEF fall in?
high-valued

Where would IP244 (Fc fusion) YSEGTFTSDVSKLLEEEAVRLFIEWLLAGAPPGGSGSTASSGSGSATGGGGAATHTCPPCPAPEF land among the classes by reported cAMP EC50?
low-valued

Form field 'band' for IP294 (Fc fusion) YSEGTFTSDYSKLLEEEAVRLFICWLVCGPGGGGGGGGGGGGGGGGGGGGACPPC
high-valued

Would you mind sorting IP324 (Fc fusion) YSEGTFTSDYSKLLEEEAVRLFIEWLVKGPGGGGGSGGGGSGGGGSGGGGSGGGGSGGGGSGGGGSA into the appropriate category?
high-valued

Where would IP264 (Fc fusion) YSEGTFTSDYSKLLEEEAVRLFIEWLVKGKGGGGGSGGGGSGGGGSGGGGSATHTCPPCPAPEF land among the classes by reported cAMP EC50?
mid-valued

Place this binder in its band: IP390 (Fc fusion) YSEGTFTSDYSKLLEEEAVRLFIEWLVKGPGGGGGSGGGGSGGGGSGGGGSGGGGSACPPC
low-valued

Using the reported cAMP EC50, which band applies to IP379 (Fc fusion) YSEGTHTSDFSKLLEEEAVRLFIEWLLAGGGGGGSGGGGSGGGGSGGGGSATHTCPPC ?
mid-valued

Sort IP362 (Fc fusion) YSEGTFTSDYMMLKEEEAVRLFIEWLLAGGGGGGSGGGGSGGGGSGGGGSATHTCPPC into one of the categories.
low-valued

Could you place IP415 (Fc fusion) HSQGTFTSDYSKILEEEAVRLFIEWLLAGGGSGGGGSGGGGSGGGGSGGGGSGGGGSGGGGSGGGGSACPPC in its proper category? Many thanks.
low-valued

Bin? IP261 (Fc fusion) YSEGTFTSDYSKLLEEEAVRLFVEWLVKGPGGGGGSGGGGSGGGGSGGGGSATHTCPPCPAPEF
high-valued

Band for the recorded cAMP EC50 of IP262 (Fc fusion) YSEGTFTSDYSKLLEEEAVRLFIEWLLKGPGGGGGSGGGGSGGGGSGGGGSATHTCPPCPAPEF ?
low-valued

Bin this entry: IP296 (Fc fusion) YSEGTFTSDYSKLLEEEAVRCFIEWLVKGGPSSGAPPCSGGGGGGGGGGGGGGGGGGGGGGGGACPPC
mid-valued

Attribution: patent US20160185837A1
